tested on: MPTP-treated mice; experiment: Anti-Parkinsonian activity in MPTP-treated mice with a sub threshold dose of L-DOPA (motor activity counts); type: in vivo, C57 BL/6 mice; conditions: MPTP-treated mice (2×40 mg/kg s.c.); compound 3 mg/kg orally + 5 mg/kg L-Dopa s.c.; counts with Vehicle (no MPTP) = 100%
What TOTAL ACTIVITY was measured for each of the following?
Write the figure, then the unit, nothing else.

Solved cases below.
N#Cc1ccc(NCCc2c[nH]c3ccccc23)cc1C#N [N-(3,4-dicyanophenyl)-tryptamine]
47%
COc1ccc2[nH]cc(CCNc3ccc(C#N)c(C#N)c3)c2c1
48%
CS(=O)(=O)c1ccc(NCCC(=O)c2ccccc2N)c([N+](=O)[O-])c1
72%
Nc1ccccc1C(=O)CCNc1ccccc1[N+](=O)[O-]
45%

Record TOTAL ACTIVITY per entry; entries follow.
1. COc1ccc2[nH]cc(CCNc3ccc(Br)cc3[N+](=O)[O-])c2c1
2. O=[N+]([O-])c1ccccc1NCCc1c[nH]c2ccccc12 [N-(2-Nitrophenyl)-tryptamine]
3. O=C(O)c1cc([N+](=O)[O-])ccc1NCCc1c[nH]c2ccccc12 [N-(2-Carboxy-4-nitrophenyl)-tryptamine]

*A*
1. 46%
2. 90%
3. 45%
